Target Entity: T1, TNFR1 on THP-1 Lucia NF-kB reporter cells (UniProt P19438 30-455, limits assumed)
T1 sequence (looked up): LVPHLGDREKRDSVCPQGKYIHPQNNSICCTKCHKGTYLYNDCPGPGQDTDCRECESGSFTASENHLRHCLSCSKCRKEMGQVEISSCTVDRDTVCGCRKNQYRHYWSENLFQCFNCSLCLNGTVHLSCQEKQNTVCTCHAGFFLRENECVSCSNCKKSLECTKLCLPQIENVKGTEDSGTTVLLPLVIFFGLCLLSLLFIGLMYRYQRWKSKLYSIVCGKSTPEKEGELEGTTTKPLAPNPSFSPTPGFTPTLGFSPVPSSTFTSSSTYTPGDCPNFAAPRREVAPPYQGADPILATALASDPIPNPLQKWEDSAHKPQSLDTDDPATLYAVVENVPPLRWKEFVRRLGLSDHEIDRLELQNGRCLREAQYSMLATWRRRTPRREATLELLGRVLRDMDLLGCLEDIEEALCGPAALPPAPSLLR
Assay Protocol: cell-based or functional assay
Square brackets hold non-standard residues; d marks the D form. Trp(βS-Me,7-OMe) = COc1cccc2c([C@H](C)[C@H](N)C(=O)O)c[nH]c12; Trp(7-Cl) = N[C@@H](Cc1c[nH]c2c(Cl)cccc12)C(=O)O; Phe(4-CONH2) = NC(=O)c1ccc(C[C@H](N)C(=O)O)cc1; Phe(4-COOH) = N[C@@H](Cc1ccc(C(=O)O)cc1)C(=O)O; 3Pal = N[C@@H](Cc1cccnc1)C(=O)O; 4Pal = N[C@@H](Cc1ccncc1)C(=O)O; NMeE = CN[C@@H](CCC(=O)O)C(=O)O; Pipt5OH = not defined here; αMeS = C[C@](N)(CO)C(=O)O; Nle = CCCC[C@H](N)C(=O)O; Pip2c = not defined here; Sar = CNCC(=O)O
Below, each entry is listed with its recorded THP-1 IC50.
The figure you give is taken to be in nM; do not add the unit.

**Q:** Which measured THP-1 IC50 value corresponds to cyclo([bhcLeu][Nle][4Pal][Pipt5OH]W[NMeE]N[4Pal][Trp(7-Cl)][αMeS][Phe(4-CONH2)][TyrOcm][Sar][Trp(βS-Me,7-OMe)]) (reading uncertain; also: printed as cyclo(bhcLeu-Nle-4Pal-Pipt5OH-W-NMeE-N-4Pal-Trp7Cl-aMeS-Phe4CONH2-TyrOcm-Sar-SbMeW7OMe)) [SEQ ID NO. 126] ?
**A:** 0.8

Shift focus to the following entry.
**Q:** Form field: reported THP-1 IC50 of cyclo([bhcLeu][Nle][3Pal][Pip2c]W[NMeE]N[4Pal][Trp(7-Cl)][αMeS][Phe(4-COOH)]Y[Sar][Trp(βS-Me,7-OMe)]) (reading uncertain; also: printed as cyclo(bhcLeu-Nle-3Pal-Pip2c-W-NMeE-N-4Pal-Trp7Cl-aMeS-Phe4COOH-Y-Sar-SbMeW7OMe)) [SEQ ID NO. 40]
**A:** 1.5
